Entry source: ChEMBL document CHEMBL1201862

Test system: KM12
run description: NCI tumour cell line growth inhibition, 48 h
Active and inactive are the calls of the source. No stated cut-off is given here; in the data, active = GI50 up to about 1.1 µM and inactive = higher.
// allowed return values: class 1 = active, class 0 = inactive

| molecule | test system | group |
| --- | --- | --- |
| CC(C)[C@@H]1CC[C@@H](C)C[C@H]1OC(=O)/C=C1\C(C(=O)O[C@@H]2C[C@H](C)CC[C@H]2C(C)C)[C@H]2C=C[C@@H]1O2 (stereo partly specified) | KM12 | class 0 |
| c1ccc2c(c1)c1c(c3ccccc32)CN2CCCC2C1 (stereo unspecified) | KM12 | class 0 |
| O=C(Nc1ccc(Cl)cc1C(F)(F)F)C(=O)Nn1c(S)nc2ccccc2c1=O | KM12 | class 0 |
| Cc1ccc(C2=C(c3ccccc3)C(O)(c3ccc(C)cc3)C(c3ccccc3)=C2c2ccc(C)cc2)cc1 | KM12 | class 0 |
| O=C1N/C(=C\[N+](=O)[O-])c2ccccc21 | KM12 | class 0 |

Req: What did this assay record as the result for `Cn1c2ccccc2n2c3ncccc3c(=S)c(C#N)c12` ?
Resp: class 0

Req: Outcome? `CCc1ccccc1-n1c2nc(=O)n(C)c(=O)c-2nc2ccccc21`
Resp: class 0

Req: Which outcome did this test record for the molecule `Clc1ccccc1CN1COc2c(cc(Cl)c3cccnc23)C1` ?
Resp: class 0

Req: Which result was noted for this molecule in the test: COC1=C2C[C@](OC)(C#CC=CC#CC2O)CC1(C)C (stereo partly specified)
Resp: class 0

====

Test system: PC-3
run description: NCI tumour cell line growth inhibition, 48 h
Activity calls are given as the source filed them. No stated cut-off is given here; in the data, active = GI50 up to about 1.1 µM and inactive = higher.
API: response.call in active, inactive

| compound | group |
| --- | --- |
| Cn1c2ccccc2n2c3ncccc3c(=S)c(C#N)c12 | inactive |
| O=[N+]([O-])c1ccc(Cl)cc1C1ON=C(c2ccccc2)N1C12CC3CC(CC(C3)C1)C2 (stereo not given) | inactive |
| CC[n+]1c(-c2ccccc2)c2cc(N)ccc2c2ccc(N)cc21 [HOMIDIUM BROMIDE] | inactive |

Req: Fill in: this test's call for `S=C(NCc1ccccc1)N/N=C/c1ccccn1` is ___
Resp: active

Req: Please let me know the test result on file for `COC(=O)[C@H](C)N1C(=O)N[C@@H](C(C)C)C1=O` .
Resp: inactive

Req: Assay result, entry `Clc1ccc(-c2nn3c(C45CC6CC(CC(C6)C4)C5)nnc3s2)cc1` — outcome?
Resp: inactive

Req: Recorded test outcome, item `CCOC(=O)c1c(Cl)nc2ccccc2c1N=[N+]=[N-]`
Resp: inactive

Req: Returns: the outcome recorded for `O=C(NN1C(=O)C=CC1=O)c1ccccc1Nc1ccccc1C(=O)NN1C(=O)C=CC1=O` in this assay.
Resp: inactive

Req: Per the records of this test, what outcome belongs to `COc1ccc(/N=C2\C(=N/c3ccc(OC)cc3)N(S(=O)(=O)c3ccccc3)C(=S)N2c2ccc(OC)cc2)cc1` ?
Resp: inactive

Req: What classification did `Cc1sc2nc(-c3ccc(Cl)c([N+](=O)[O-])c3)c(/C=N/NC(=N)N)n2c1C` end up with in this test?
Resp: inactive

====

Test system: SF-268
run description: NCI tumour cell line growth inhibition, 48 h
The source made the active and inactive calls. Rule as the data show it: active = GI50 up to about 1.1 µM and inactive = higher.
GI50 by entry:

In the examples that follow, each entry is paired with its recorded GI50.
| compound | GI50 |
| --- | --- |
| C[C@@H]1C(=O)O[C@@H]2C[C@@]1(C)[C@@H]1C(=O)C3(O)OC14C2(C)OC(=O)[C@@]4(O)CCC1C3C(O)C=C2CC=CC(=O)[C@@]21C (stereo not given in full) | 26.7 µM (inactive) |
| O=[N+]([O-])c1ccc(-c2nc3ccccc3o2)cc1 | > 100 µM (inactive) |
| CC(C)(Oc1ccc2c(=O)cc(-c3ccccc3)oc2c1)C(=O)N1CCN(c2ccccc2)CC1 | 4.16 µM (inactive) |
| COc1c(NC(C)=O)c2ccccc2c2ccccc12 | > 100 µM (inactive) |

Please find the next compound below.
Record summary for `COc1ccc(C2=NOP(c3ccccc3)(c3ccccc3)(c3ccccc3)C2)cc1` : reported GI50 = 40.4 µM (inactive)
